- ASSAY TARGET: HRgpA-6H (Porphyromonas gingivalis) (UniProt P28784)
- PROTOCOL NOTES: ELISA on coated HRgpA-6H
Here, each record is paired with measured OD450nm data.
Give only the figure.

Solved entries (count: 2):
- BINDER: "KB001 mouse Fab FASEBA VH S57H (Fab, V domains shown) VH: EVQLKQSGPGLVAPSQSLSITCTVSGFSLSIYSVHWVRQPPGKGLEWLGMIWGGGSHDYNSALKSRLSISKDNSKSQVFLKMNSLQTDDTAMYYCARNGNFYAMDYWGQGTSVTVSS VL: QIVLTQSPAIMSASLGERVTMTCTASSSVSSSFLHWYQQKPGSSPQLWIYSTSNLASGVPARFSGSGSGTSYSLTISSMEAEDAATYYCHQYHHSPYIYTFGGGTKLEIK"
  ENDPOINT LABEL: "OD450nm"
  QUANTITATIVE READOUT: 0.8
- BINDER: "KB001 mouse Fab FASEBA VH S30T (Fab, V domains shown) VH: EVQLKQSGPGLVAPSQSLSITCTVSGFSLTIYSVHWVRQPPGKGLEWLGMIWGGGSSDYNSALKSRLSISKDNSKSQVFLKMNSLQTDDTAMYYCARNGNFYAMDYWGQGTSVTVSS VL: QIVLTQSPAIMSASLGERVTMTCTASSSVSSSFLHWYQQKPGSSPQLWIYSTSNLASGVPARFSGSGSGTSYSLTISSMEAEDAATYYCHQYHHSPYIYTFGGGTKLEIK"
  ENDPOINT LABEL: "OD450nm"
  QUANTITATIVE READOUT: 0.457

Now let's try a different one.
The reported value for KB001 mouse Fab FASEBA VH N60T (Fab, V domains shown) VH: EVQLKQSGPGLVAPSQSLSITCTVSGFSLSIYSVHWVRQPPGKGLEWLGMIWGGGSSDYTSALKSRLSISKDNSKSQVFLKMNSLQTDDTAMYYCARNGNFYAMDYWGQGTSVTVSS VL: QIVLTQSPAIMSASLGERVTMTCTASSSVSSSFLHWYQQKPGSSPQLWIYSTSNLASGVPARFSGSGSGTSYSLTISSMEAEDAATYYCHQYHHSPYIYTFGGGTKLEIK in terms of OD450nm is 0.406
